Item-by-item account of growth inhibition
- protocol: NCI Yeast Anticancer Drug Screen. Data for the mec2-1 strain (AID 157)
- conditionDescription: S. cerevisiae mec2-1 strain, at 50.0 µM, hits give high values
The panel holds about 79,000 compounds, 15% with a hit somewhere; the sample as a whole holds those more often.
Answer format: numeric, % implied, no suffix.

Worked examples, 9 molecules total:
[
  {
    "molecule": "O=C(O)C(C(=O)O)C1CCCCCC1",
    "observedValue": -6.6
  },
  {
    "molecule": "CN1C/C(=C\\c2ccc(N(C)C)cc2)C(=O)/C(=C/c2ccc(N(C)C)cc2)C1",
    "observedValue": -8.05
  },
  {
    "molecule": "Cn1c(=O)c(C(=O)NC(=O)OCc2ccccc2)cn(CCSCCOC(=O)NCCCCCCNC(=O)OCCSCCn2cc(C(=O)NC(=O)OCc3ccccc3)c(=O)n(C)c2=O)c1=O",
    "observedValue": -21.1
  },
  {
    "molecule": "CC(=O)C(CCN(C)C)c1ccc2c(c1)CCc1ccccc1-2 (stereo not given)",
    "observedValue": 5.65
  },
  {
    "molecule": "CC(C)(C)OC(=O)[N+](=N)C(=O)C1CCC(=O)N1C(=O)OCc1ccccc1 (stereo not given)",
    "observedValue": -33.6
  },
  {
    "molecule": "CCCCc1c(C#N)c(=O)n2c(N)c(C#N)cnc2c1SC",
    "observedValue": 8.45
  },
  {
    "molecule": "CN(C)C(=O)c1ccc[n+](CC(=O)Nc2ccccc2)c1",
    "observedValue": -3.85
  },
  {
    "molecule": "O=C(O)CC(=O)Nc1cc([N+](=O)[O-])ccc1OCc1ccccc1",
    "observedValue": 3.6
  },
  {
    "molecule": "CCOC(=O)C1CCC/C1=N/Nc1ccc([N+](=O)[O-])cc1[N+](=O)[O-] (stereo not given)",
    "observedValue": 10.6
  }
]

Here is the next item to consider.
May I ask what growth inhibition has been recorded for Cc1ccc(Br)c([N+](=O)[O-])c1 ? -4.75
